- System: UniProt:P23743
- Sequence (P23743 whole entry): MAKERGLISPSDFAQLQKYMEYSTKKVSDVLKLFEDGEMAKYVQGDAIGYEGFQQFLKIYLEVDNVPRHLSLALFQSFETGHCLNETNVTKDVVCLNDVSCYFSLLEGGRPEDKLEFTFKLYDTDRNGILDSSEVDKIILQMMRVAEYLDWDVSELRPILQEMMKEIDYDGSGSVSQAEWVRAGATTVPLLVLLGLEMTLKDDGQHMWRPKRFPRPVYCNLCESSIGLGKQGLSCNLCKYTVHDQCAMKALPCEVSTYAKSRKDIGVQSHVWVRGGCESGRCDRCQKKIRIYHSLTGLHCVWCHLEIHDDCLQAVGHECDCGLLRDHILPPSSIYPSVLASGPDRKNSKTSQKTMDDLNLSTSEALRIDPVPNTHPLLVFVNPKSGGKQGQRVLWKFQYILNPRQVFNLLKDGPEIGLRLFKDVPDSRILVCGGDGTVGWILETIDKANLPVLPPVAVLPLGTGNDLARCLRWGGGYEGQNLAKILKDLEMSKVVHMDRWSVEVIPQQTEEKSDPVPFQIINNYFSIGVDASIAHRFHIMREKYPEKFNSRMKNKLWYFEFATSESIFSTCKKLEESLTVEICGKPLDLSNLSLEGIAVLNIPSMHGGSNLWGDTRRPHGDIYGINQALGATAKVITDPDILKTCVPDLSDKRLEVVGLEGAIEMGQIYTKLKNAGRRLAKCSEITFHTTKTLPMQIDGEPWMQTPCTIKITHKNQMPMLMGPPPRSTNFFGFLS
- Assay Remarks: DGKα biochemical assay (ADP-Glo)
- Test Parameters: read-out: DGK α IC50
pIC50: −log10 of the molar value. Counter-ions that a name gives are not always drawn.
Metric: pIC50

Compound: Cc1ccc(N(CC2CC2)[C@H]2CC[C@H](N(C)c3c(C#N)c(=O)n(C)c4ccc(C#N)nc34)CC2)cc1
System: UniProt:P23743
Metric: pIC50
Result: 6.00 to 7.00
--
Compound: Cn1c(=O)c(C#N)c(N(C)[C@H]2CC[C@H](N(c3ccc(F)cc3)C3CCC3)CC2)c2nc(C#N)ccc21
System: UniProt:P23743
Metric: pIC50
Result: 6.00 to 7.00
--
Compound: Cc1cc(F)ccc1N(CC1CN(C)CCO1)[C@H]1CC[C@H](N(C)c2c(C#N)c(=O)n(C)c3ccc(C#N)nc23)CC1 (stereo partly drawn) [Example 186, trifluoroacetate]
System: UniProt:P23743
Metric: pIC50
Result: 6.00 to 7.00
--
Compound: Cn1c(=O)c(C#N)c(N2CCC(N(CC3CC3)c3ccccc3O)CC2)c2nc(Cl)ccc21
System: UniProt:P23743
Metric: pIC50
Result: 7.00 to 8.00
--
Compound: Cn1c(=O)c(C#N)c(N(C)[C@H]2CC[C@@H](N(CC3CC3)c3cc(F)cc(F)c3)CC2)c2nc(C#N)ccc21
System: UniProt:P23743
Metric: pIC50
Result: 7.00 to 8.00
--
Compound: COc1cc(F)ccc1N(C1CCC1)[C@H]1CC[C@@H](N(C)c2c(C#N)c(=O)n(C)c3ccc(Cl)nc23)CC1
System: UniProt:P23743
Metric: pIC50
Result: ≤ 6.00
--
Compound: Cn1c(=O)cc(N(C)[C@H]2CC[C@@H](N(CC3CCC3)c3cccc4c3OCO4)CC2)c2nc(C#N)ccc21
System: UniProt:P23743
Metric: pIC50
Result: 6.00 to 7.00
--
Compound: Cn1c(=O)c(C#N)c(N(C)[C@H]2CC[C@H](N(CC3CC3)c3ccc4c(c3)OCO4)CC2)c2nc(C#N)ccc21
System: UniProt:P23743
Metric: pIC50
Result: ≤ 6.00
--
Compound: Cn1c(=O)c(C#N)c(N(C)[C@H]2CC[C@@H](N(CC3CCOC3)c3ccc(F)cc3)CC2)c2nc(C#N)ccc21 (relative stereo)
System: UniProt:P23743
Metric: pIC50
Result: > 8.00
--
Compound: CC(C)CN(c1ccc(F)cc1)[C@H]1CC[C@@H](N(C)c2c(C#N)c(=O)n(C)c3ccc(Cl)nc23)CC1
System: UniProt:P23743
Metric: pIC50
Result: 6.00 to 7.00
--
Compound: Cn1c(=O)oc2ccc(N(CC3CC3)[C@H]3CC[C@@H](N(C)c4c(C#N)c(=O)n(C)c5ccc(C#N)nc45)CC3)cc21
System: UniProt:P23743
Metric: pIC50
Result: ≤ 6.00
--
Compound: Cn1c(=O)c(C#N)c(N[C@H]2CC[C@H](N(c3ccccc3)C3CC3)CC2)c2nc(Cl)ccc21
System: UniProt:P23743
Metric: pIC50
Result: > 8.00
--
Compound: Cc1cc(N(CC2CCC2)[C@H]2CC[C@H](N(C)c3c(C#N)c(=O)n(C)c4ccc(C#N)nc34)CC2)ccc1F
System: UniProt:P23743
Metric: pIC50
Result: 6.00 to 7.00
--
Compound: Cn1c(=O)cc(N(C)[C@H]2CC[C@@H](N(CC3CC3)c3ccc(F)c(OC(F)F)c3)CC2)c2nc(C#N)ccc21
System: UniProt:P23743
Metric: pIC50
Result: 7.00 to 8.00
--
Compound: Cn1c(=O)c([N+](=O)[O-])c(N2CCC(N(CC3COC3)c3ccccc3)CC2)c2nc(C#N)ccc21
System: UniProt:P23743
Metric: pIC50
Result: ≤ 6.00
--
Compound: Cn1c(=O)c(C#N)c(N(C)[C@H]2CC[C@@H](N(c3ccc(F)cc3F)C3CC3)CC2)c2nc(Cl)ccc21
System: UniProt:P23743
Metric: pIC50
Result: 6.00 to 7.00
--
Compound: Cn1c(=O)cc(N(C)[C@H]2CC[C@@H](N(CC3CCC3)c3ccc4c(c3)OC(F)(F)O4)CC2)c2nc(C#N)ccc21
System: UniProt:P23743
Metric: pIC50
Result: 7.00 to 8.00
--
Compound: Cn1c(=O)c(C#N)c(N(C)[C@H]2CC[C@H](N(CC3CCC3)c3ccc(CCN4CCOCC4)cc3)CC2)c2nc(C#N)ccc21
System: UniProt:P23743
Metric: pIC50
Result: ≤ 6.00
--
Compound: Cn1c(=O)c(C#N)c(N(C)[C@H]2CC[C@H](N(CC3CC3)c3ccc(F)c(CN4CCOCC4)c3)CC2)c2nc(C#N)ccc21
System: UniProt:P23743
Metric: pIC50
Result: 6.00 to 7.00
--
Compound: Cc1[nH]c2ccccc2c1C(=O)N[C@H]1CC[C@H](N(CC2CC2)c2ccccc2)CC1
System: UniProt:P23743
Metric: pIC50
Result: ≤ 6.00
--
Compound: Cn1c(=O)cc(N(C)[C@H]2CC[C@H](N(c3ccccc3)C3CC3)CC2)c2nc(C#N)ccc21
System: UniProt:P23743
Metric: pIC50
Result: 6.00 to 7.00
--
Compound: Cc1cc(F)ccc1N(CC1CCOC1)[C@H]1CC[C@@H](N(C)c2cc(=O)n(C)c3ccc(C#N)nc23)CC1 (stereo partly drawn)
System: UniProt:P23743
Metric: pIC50
Result: 6.00 to 7.00
--
Compound: Cn1c(=O)c(C#N)c(N(C)[C@H]2CC[C@H](N(CC3CCC3)c3ccc(F)cc3C(F)F)CC2)c2nc(C#N)ccc21
System: UniProt:P23743
Metric: pIC50
Result: 7.00 to 8.00
--
Compound: Cc1ccc(F)cc1N(CC1CC1)[C@H]1CC[C@H](N(C)c2c(C#N)c(=O)n(C)c3ccc(Cl)nc23)CC1
System: UniProt:P23743
Metric: pIC50
Result: ≤ 6.00

src = patent US20230271954A1
